procedure text: NCI Yeast Anticancer Drug Screen. Data for the sgs1 mgt1 strain (AID 161);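 also: 0% = growth of cultures given vehicle only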
experimental context: S. cerevisiae sgs1 mgt1 strain, at 50.0 µM, hits give high values
This is part of a sample that, as a whole, favours compounds with a hit. Of some 79,000 tested, about 15% had one in any assay.
# if value of growth inhibition reaches -10%, tag criterion met; if it stays below, tag criterion not met

molecule	label
CCCCCCCC/C=C\CCCCCCCC(=O)NCCN(CCN)C(=O)CCCCCCC/C=C\CCCCCCCC	criterion not met
CCCC1OC(c2ccccc2)OCC1CC (stereo not drawn)	criterion not met
OC(CNC1CCCCC1)(c1ccccc1)c1ccccc1	criterion met
N#CC12CCC(CC1)CC2Cl (stereo not drawn)	criterion met
Cc1n[nH]c2ccccc2c1=O	criterion not met
C1CSCCSCCSCCSC1	criterion not met
CCCCCCC(O)Cc1ccccc1 (stereo not drawn)	criterion met
CN(C/C=C/CN(C)C(=S)Nc1ccccc1)C(=S)Nc1ccccc1	criterion not met
CC1CCOC(c2ccc(C(C)C)cc2)O1 (stereo not drawn)	criterion met
O=[N+]([O-])c1ccc2nc(/C=C(\O)c3ccccc3)c(NC34CC5CC(CC(C5)C3)C4)nc2c1	criterion met
COC(=O)CCCC(Sc1ccccc1)C(=O)OC (stereo not drawn)	criterion met
O=C=Nc1ccc([N+](=O)[O-])cc1	criterion met
CC(C)(C#N)OC(=O)Nc1c(Cl)cccc1Cl	criterion met

###

growth inhibition values for the compounds below.
procedure text: NCI Yeast Anticancer Drug Screen. Data for the rad50 strain (AID 155);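 also: 0% = growth of vehicle-only cultures of the same strain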
experimental context: S. cerevisiae rad50 strain growth inhibition; at 50.0 µM; hits give high values
The panel holds about 79,000 compounds, 15% with a hit somewhere; the sample as a whole holds those more often. Active and inactive are the calls of the source. Cut-off read from the data, not from the text of the source: active = growth inhibition above about 70%; inactive = the rest.
measured quantity: growth inhibition

compound	measured quantity	result
Cn1c(=O)c2c(nc(OC3CCCCC3)n2C)n(C)c1=O	growth inhibition	14.1% (inactive)
CCOC(=O)c1c(C)c2c(n1C)CCC(CCC(C)=O)C2=O (centres undefined)	growth inhibition	5.6% (inactive)
Cc1ccc(OC(=O)c2cccs2)cc1	growth inhibition	29.6% (inactive)
COc1ccc(Sc2cccc(Cl)c2)c(C(=O)O)c1	growth inhibition	-21.8% (inactive)
CCOC1(OCC)CS(=O)(=O)C1c1ccccc1 (centres undefined)	growth inhibition	-1.2% (inactive)
NC(=O)N/N=C/c1c(Cl)cccc1Cl	growth inhibition	15.9% (inactive)
CCCCCCCCCCCCCCCCOc1ccc2ccccc2c1	growth inhibition	4.15% (inactive)
CN(C)Cc1ccccc1COC(=O)c1ccc(Cl)cc1	growth inhibition	12.8% (inactive)
CCCCC(/C=C(/C)C(=O)O)CC (centres undefined)	growth inhibition	6.9% (inactive)
N#C[C@H]1CC2C=CC1C2 (some centres undefined)	growth inhibition	12.2% (inactive)
COc1ccc(CCc2cc(OC)c(O)c(OC)c2)cc1	growth inhibition	18.5% (inactive)
CCCC(CCc1ccccc1)C(=O)NC(N)=O (centres undefined)	growth inhibition	4.5% (inactive)
CCCCOC(=O)C1C(c2ccc(Cl)cc2)NC(c2ccc(Cl)cc2)C(C(=O)OCCCC)S1(=O)=O (centres undefined)	growth inhibition	-28.2% (inactive)
Cc1cc(Cl)ccc1NC(=O)C(=O)Cc1nc2ccc(C(=O)c3ccccc3)cc2[nH]c1=O	growth inhibition	5.15% (inactive)
COC(=O)c1ccc(C(=O)OC)nc1	growth inhibition	-7.45% (inactive)
CC12CCC(=O)C=C1CCC1C2CCC2(C)C(C(=O)Cn3c(=O)[nH]cc(F)c3=O)CCC12 (centres undefined)	growth inhibition	19.9% (inactive)
CCOC(=O)C1(C(=O)OCC)CC(CCC#N)(CCC#N)C(=O)C(CCC#N)(CCC#N)C1	growth inhibition	-2.15% (inactive)
CCN=c1c([N+](=O)[O-])c(NC(=O)c2ccccc2)sn1CC	growth inhibition	-9.1% (inactive)
Cn1nc(-c2ccccc2)c(C(=O)/C=C/c2ccc(F)cc2)c(N2CCOCC2)c1=O	growth inhibition	-34.9% (inactive)
Cc1ccccc1C(=O)NNC(=O)c1cccc2ccccc12	growth inhibition	27.6% (inactive)
O=C(O)C1=C/C(=C\C=[N+]2c3cc(O)c(OC4OC(CO)C(O)C(O)C4O)cc3CC2C(=O)[O-])CC(C(=O)O)N1 (centres undefined)	growth inhibition	-10.4% (inactive)
O=c1[nH]c(=O)c2[nH]cnc2[nH]1	growth inhibition	8.05% (inactive)
O=C(O)c1c(F)c(F)c(-c2c(F)c(F)c(C(=O)O)c(C(=O)O)c2F)c(F)c1C(=O)O	growth inhibition	1.5% (inactive)
CCC(=O)Nc1cc(C)c(C)cc1C	growth inhibition	4.75% (inactive)

###

growth inhibition values for the compounds below.
procedure text: NCI Yeast Anticancer Drug Screen. Data for the mec2-1 strain (AID 157)
experimental context: S. cerevisiae mec2-1 strain, at 50.0 µM, hits give high values
Compounds without any hit were thinned out: in the full panel of roughly 79,000, 15% have a hit.

compound	unit string	growth inhibition
CCN(Cc1cccc(S(=O)(=O)O)c1)c1ccc(C(=C2C=CC(=[N+](C)C)C=C2)c2ccc(N(C)C)cc2)c(S(=O)(=O)O)c1	%	54.8
O=c1c(N2CCOCC2)c(N2CCOCC2)c1=O	%	-22.9
NC(=O)NC(=O)CC1NC(=O)NC1=O (stereo not given)	%	12
COC12COC(=O)C1C(c1ccc3c(c1)OCO3)c1cc3c(cc1O2)OCO3 (stereo not given)	%	-0.6
CN(C)CCCNC=O	%	-10.9
CN(C)c1ccc(C2NC(c3ccccc3)c3c(ccc4ccccc34)O2)cc1 (stereo not given)	%	2.45
CCOC(=O)CCC(NC(=O)c1ccc(Nc2nc3cc(C(F)(F)F)ccc3nc2-c2ccccc2)cc1)C(=O)OCC (stereo not given)	%	2.7
CC(C)OC(=O)Oc1ccc(Cl)cc1	%	-13.1
O=C(O)c1ccccc1N1C(=O)c2ccccc2C1=O	%	-33.2
CCOC(=O)NC(CI)(c1ccccc1)c1ccccc1	%	10.2
CCOC(=O)Cc1n[nH]c(=O)c2ccccc12	%	1.4
CCOCCOC(=O)C1CCC(=O)N1CN(C(C)=O)c1cc(OC)ccc1OC (stereo not given)	%	-3.6
CN(C)c1ccc(N=Nc2ccc(C(C)(C)C)cc2)cc1	%	3.3
CCCCCCCCCCCCOc1ccc(Sc2ccc([N+](=O)[O-])cc2)cc1	%	2.55
COc1cc(C(=O)N=Nc2c(O)[nH]c3ccc(Br)cc23)cc(OC)c1OC	%	-16.6
Cc1cccc(C)c1N=Nc1sc(N)nc1C	%	10.6
CCCCOC(=O)C1CC2CC1C1OC21 (stereo not given)	%	-63.3
O=CN(Cc1ccccc1)Cc1ccccc1	%	8.2
CNc1n[nH]c(-c2ccccc2)n1	%	-17.5
O=C(O)C(c1cccs1)C1(O)CCCCC1 (stereo not given)	%	-7.2
NCCCCN(CCCN)Cc1ccccc1	%	-1.25
Cc1cc(C)c(C)c(Br)c1	%	4.6
CCOC(=O)c1c(-c2ccc(OC)cc2)c(C#N)c(=S)n(C2OC(CO)C(O)C(O)C2O)c1-c1ccccc1 (stereo not given)	%	-29
CC1(CO)CCCC2(C)C3=CC(=O)CCC3CCC12 (stereo not given)	%	-1.9
S=C(SCc1c(Cl)cccc1Cl)N1CCSCC1	%	-14.2

###

procedure text: NCI Yeast Anticancer Drug Screen. Data for the rad50 strain (AID 155);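 also: 0% = growth of vehicle-only cultures of the same strain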
experimental context: S. cerevisiae rad50 strain growth inhibition; at 50.0 µM; hits give high values
This is part of a sample that, as a whole, favours compounds with a hit. Of some 79,000 tested, about 15% had one in any assay.
growth inhibition values for the compounds below.
measured quantity: growth inhibition (%)

compound	result number
C1CSCCSCCCSC2CCCCC2SC1 (configuration not stated)	22.1
CC1NC(=O)OC1C(C)(C)C (configuration not stated)	6.95
NC(=O)[C@@H]1CCCN1C(=O)c1cccnc1	-14.9
Cc1onc(-c2ccccc2Cl)c1C(=O)NCC(=O)O	-5.55
O=c1[nH]cnc2nc(N3CCN(c4ccccc4)CC3)sc12	18.8
O=C(O)c1cc(=O)c2[nH]c3ccccc3c2s1	-5.2
CCCCNc1ccc2c(C)c(Cc3ccccc3)c(=O)oc2c1	9.3

###

procedure text: NCI Yeast Anticancer Drug Screen. Data for the sgs1 mgt1 strain (AID 161);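 also: 0% = growth of cultures given vehicle only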
experimental context: S. cerevisiae sgs1 mgt1 strain, at 50.0 µM, hits give high values
Description: Growth inhibition of yeast strains with defined genetic alterations is measured as a screen for potential anti-cancer activity. Selected strains with alterations in DNA damage repair or cell cycle control were exposed to compounds and growth inhibition was measured relative to vehicle treated controls. The strain used in this assay is sgs1 mgt1
Compounds without any hit were thinned out: in the full panel of roughly 79,000, 15% have a hit.
growth inhibition values for the compounds below.
measured quantity: growth inhibition (%)

compound	result number
CCNC(=O)OCCN(C)CCOC(=O)NCC	-4.15
CCCN(CCC)S(=O)(=O)c1ccc(NC(=O)Oc2ccc([N+](=O)[O-])cc2)cc1	33.5
COc1cccc(CN(CCc2cccc(OC)c2OC)C(=O)CN2CCOCC2)c1O	-0.05
CC1(C)OCC(C2OC(C)(C)OC2C(CO)Nc2ccc([N+](=O)[O-])cc2[N+](=O)[O-])O1 (stereo not given)	59.1
COc1ccc(-c2nc3c(nc2-c2ccc(OC)cc2)C(N)=NS(=O)(=O)N3)cc1	-19.9
